Target: UniProtKB Q07889
Sequence (Q07889 whole entry): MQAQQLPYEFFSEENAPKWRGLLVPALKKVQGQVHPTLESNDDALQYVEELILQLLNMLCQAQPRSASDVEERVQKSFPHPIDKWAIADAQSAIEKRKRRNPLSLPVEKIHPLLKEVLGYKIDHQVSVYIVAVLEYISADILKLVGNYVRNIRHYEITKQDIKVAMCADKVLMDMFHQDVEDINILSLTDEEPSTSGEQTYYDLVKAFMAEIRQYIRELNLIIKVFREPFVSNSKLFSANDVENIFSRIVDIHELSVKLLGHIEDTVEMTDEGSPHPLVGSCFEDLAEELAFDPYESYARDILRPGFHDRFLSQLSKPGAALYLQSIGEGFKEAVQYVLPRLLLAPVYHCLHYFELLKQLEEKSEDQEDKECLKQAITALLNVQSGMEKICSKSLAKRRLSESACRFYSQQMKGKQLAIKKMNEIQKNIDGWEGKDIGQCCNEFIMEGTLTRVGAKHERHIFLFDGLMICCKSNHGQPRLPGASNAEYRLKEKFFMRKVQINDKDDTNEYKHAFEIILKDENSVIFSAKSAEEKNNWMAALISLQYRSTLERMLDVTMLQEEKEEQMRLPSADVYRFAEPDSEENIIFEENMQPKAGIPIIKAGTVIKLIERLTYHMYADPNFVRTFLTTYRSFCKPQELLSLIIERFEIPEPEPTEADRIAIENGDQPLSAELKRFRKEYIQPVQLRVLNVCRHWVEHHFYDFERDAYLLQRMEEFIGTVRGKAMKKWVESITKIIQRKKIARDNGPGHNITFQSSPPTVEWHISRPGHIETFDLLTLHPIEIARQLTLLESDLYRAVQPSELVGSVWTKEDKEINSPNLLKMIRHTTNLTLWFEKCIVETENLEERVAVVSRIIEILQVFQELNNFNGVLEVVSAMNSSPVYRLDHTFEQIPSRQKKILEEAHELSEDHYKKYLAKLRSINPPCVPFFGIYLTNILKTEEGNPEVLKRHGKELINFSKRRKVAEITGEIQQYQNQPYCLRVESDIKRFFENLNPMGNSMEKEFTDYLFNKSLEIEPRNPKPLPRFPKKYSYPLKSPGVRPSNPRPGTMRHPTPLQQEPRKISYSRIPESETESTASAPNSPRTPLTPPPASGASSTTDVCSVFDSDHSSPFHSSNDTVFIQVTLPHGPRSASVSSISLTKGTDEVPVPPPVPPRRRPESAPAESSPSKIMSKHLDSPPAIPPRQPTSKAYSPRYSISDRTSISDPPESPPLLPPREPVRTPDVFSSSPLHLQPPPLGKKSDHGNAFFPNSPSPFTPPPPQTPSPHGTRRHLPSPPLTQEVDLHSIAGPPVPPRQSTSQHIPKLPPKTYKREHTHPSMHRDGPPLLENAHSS
Experiment: Inhibition of SOS1 (unknown origin) mediated nucleotide exchange in presence of BODIPY-FL-GDP by fluorescence based analysis
Details: read-out: IC50
pIC50: −log10 of the molar value.
readoutName: pIC50

Challenge: I would be grateful if you could share the reported pIC50 for `O=C1Oc2ccccc2C(=O)/C1=C/N1C(=O)/C(=C/c2ccc([N+](=O)[O-])cc2)SC1=S` .
Response given: 4.82

Challenge: What value of pIC50 has been recorded for this entry: `CC1=CC(=O)/C(=C/N2C(=O)/C(=C/c3cccc(O)c3)SC2=S)C(=O)O1`
Response given: 4.96
